Compiled record: IC50 values for Protein arginine N-methyltransferase 5 (Homo sapiens) across several sources.
Provide the reading as a plain figure in nM.

Below: 5 compounds and their reported IC50.
Nc1ncnc2c1ncn2[C@@H]1O[C@]2(C[C@H](Oc3ccc4cc(Br)cnc4c3)C2)[C@@H](O)[C@H]1O :: 120
CNCCN(C)Cc1cccc(-c2cc(N(C)C3CC3)c3cnn(C(C)C)c3n2)c1 :: 200000
CON=C(C(=O)NC1CC2(C1)CC(Nc1cc(C(=O)NC[C@H](O)CN3CCc4ccccc4C3)ncn1)C2)C1CC1 (stereo partly drawn) :: 14
CC(C)n1ncc2c(NC(=O)OCc3ccccc3)cc(-c3cccc(CN(C)CCN)c3)nc21 :: 27700
NCCNCc1ccc(-c2ccc3ncn(C4CCCC4)c3c2)cc1 :: 173

Data request: Give Protein arginine N-methyltransferase 5 (Homo sapiens) IC50 for the following compound: CC(C)n1ncc2c(C(=O)N3CCc4ccccc4C3)cc(-c3cccc(CNCCN)c3)nc21
Data returned: 13100

Data request: Give Protein arginine N-methyltransferase 5 (Homo sapiens) IC50 for the following compound: CS(=O)(=O)N1CCC(Cn2cnc3ccc(-c4ccc(CNCCN)cc4)cc32)CC1
Data returned: 122

Data request: Give Protein arginine N-methyltransferase 5 (Homo sapiens) IC50 for the following compound: COc1cccc(CNC(=O)c2cncc(-c3ccc(CNCCN)cc3)c2)c1
Data returned: 377

Data request: Give Protein arginine N-methyltransferase 5 (Homo sapiens) IC50 for the following compound: COc1cccc(-n2cnc3ccc(-c4ccc(CNCCN)cc4)cc32)c1
Data returned: 273

====

pIC50: −log10 of the molar value.
Compiled record: pIC50 values for Protein arginine N-methyltransferase 5 (Homo sapiens) across several sources.

Below: 3 compounds and their reported pIC50.
Nc1ncnc2c1ccn2[C@@H]1C[C@]2(C[C@H](Cc3ccccn3)C2)[C@@H](O)[C@H]1O :: 5.61
Cc1ncnc2c1ccn2[C@@H]1C[C@@]2(CO[C@@H](c3ccc4cc(Br)c(N)nc4c3)C2)[C@@H](O)[C@H]1O :: ≥ 7.00
C=CC(=O)N(CCC(=O)O)c1nc(N)c2ccn(-c3cncc(COc4ccc5ccc(NC)nc5c4)c3)c2n1 :: < 6.00

Data request: Return the recorded pIC50 value; entry: Nc1ncnc2c1ccn2[C@@H]1C[C@]2(C[C@H](COc3cccc(Cl)n3)C2)[C@@H](O)[C@H]1O
Data returned: 5.79

Data request: Return the recorded pIC50 value; entry: Nc1cnc2ccc(CCC3=C[C@@H](n4ccc5c(N)ncnc54)[C@H](O)[C@@H]3O)cc2n1
Data returned: 9.02 to 9.60

Data request: Return the recorded pIC50 value; entry: Nc1ccc2ccc(O[C@H]3C[C@]4(C3)O[C@@H](n3cnc5c(N)ncnc53)[C@H](O)[C@@H]4O)cc2n1
Data returned: 7.51

Data request: Return the recorded pIC50 value; entry: Nc1ncnc2c1ccn2[C@@H]1C[C@@]2(CNC(c3ccc4cc(Br)c(Cl)nc4c3)C2)[C@@H](O)[C@H]1O (single isomer, unassigned)
Data returned: < 6.30

Data request: Return the recorded pIC50 value; entry: Cn1ccc(-c2cn(-c3cncc(COc4ccc5ccc(N6CC(=O)C6)nc5c4)c3)c3ncnc(N)c23)n1
Data returned: < 6.00

Data request: Return the recorded pIC50 value; entry: Cn1ccc(-c2cn(-c3cncc(COc4ccc5ccc(N6CC7(COC7)C6)nc5c4)c3)c3ncnc(N)c23)n1
Data returned: < 6.00

Data request: Return the recorded pIC50 value; entry: CC1(C)Cc2cc3ccc(CC[C@H]4C[C@@H](n5ccc6c(N)ncnc65)[C@H](O)[C@@H]4O)cc3nc2N1
Data returned: > 9.00
